Quick reference for IC50 among some molecules
# Test system: NCI-H226 (human lung cancer cells)
# Protocol description: Inhibition of cell line proliferation, CCK8
# Format: cell-based
# Assay conditions: NCI-H226, 68-72 hours, CCK8
Square brackets hold non-standard residues; d marks the D form. Peptide text beside a SMILES is read from it. * marks the point of attachment. Dolaproine = CO[C@@H]([C@@H]1CCCN1)[C@@H](C)C(=O)O; Dil = CC[C@H](C)[C@H](NC)[C@@H](CC(=O)O)OC; X1 = C[C@@H](N*)[C@@H](O)c1ccccc1; NMeV = CN[C@H](C(=O)O)C(C)C

{"Molecule": "CC[C@H](C)[C@@H]([C@@H](CC(=O)N1CCC[C@H]1[C@H](OC)[C@@H](C)C(=O)N[C@H](C)[C@@H](O)c1ccccc1)OC)N(C)C(=O)[C@@H](NC(=O)[C@@H](NC)C(C)C)C(C)C [MMAE, monomethyl auristatin E] (H-[NMeV]V[Dil][Dolaproine]-X1)", "Measurement units": "nM", "IC50": 6}
{"Molecule": "CC[C@@]1(O)C(=O)OCc2c1cc1n(c2=O)Cc2c-1nc1cc(F)c(C)c3c1c2[C@@H](NC(=O)COCNC(=O)CNC(=O)[C@H](Cc1ccccc1)NC(=O)CNC(=O)CNC(=O)CCCCCN1C(=O)CC(SC[C@H](NC(=O)[C@H](CCCCN)NC(=O)[C@H](CC(=O)O)NC(=O)[C@H](CC(=O)O)NC(=O)Cc2ccc(CNC(=O)NCCCC[C@H](NC(=O)N[C@@H](CCC(=O)O)C(=O)O)C(=O)O)cc2)C(=O)N[C@@H](CCCCNC(=O)CC[C@H](NC(=O)c2ccc(NCc4cnc5[nH]c(N)nc(=O)c5n4)cc2)C(=O)O)C(N)=O)C1=O)CC3 (stereo partly shown) [CR19428]", "Measurement units": "nM", "IC50": 1620}
{"Molecule": "CCc1c2c(nc3ccc(O)cc13)-c1cc3c(c(=O)n1C2)COC(=O)[C@]3(O)CC [SN-38, reference compound]", "Measurement units": "nM", "IC50": 17.3}
{"Molecule": "CC[C@@]1(O)C(=O)OCc2c1cc1n(c2=O)Cc2c-1nc1cc(F)c(C)c3c1c2[C@@H](NC(=O)CO)CC3 [Dxd0017, reference compound]", "Measurement units": "nM", "IC50": 8}
